- assay-overview: Genotoxicity in Salmonella typhimurium TA1535 harboring pSK1002 assessed as umu gene induction at 0.016 mg/ml in absence of Sprague-Dawley rat liver S9 fraction after by SOS/umu assay relative to control
- Format: toxicity, organism-based
- experimental-conditions: salmonella enterica subsp. enterica serovar typhimurium, read-out: FC
Each record is given class 1 if its reported fold induction at 0.016 mg/ml is strictly below 1. Records at or above 1 are given class 0.

compound	discrete-label
N#Cc1ccc(N2CCC(NCCC(O)c3ccc(F)c4ccccc34)CC2)c(Br)c1 (stereo unspecified)	class 0
OC(CCN1CCN(C(c2ccccc2)c2ccccc2)CC1)c1ccc(F)c(F)c1 (stereo unspecified)	class 0
O=[N+]([O-])c1ccc(N2CCN(CCC(O)c3ccc(F)c4ccccc34)CC2)cc1 (stereo unspecified)	class 0
N#Cc1ccc(C(O)CCN2CC=C(c3ccc(F)cc3)CC2)cc1 (stereo unspecified)	class 0
N#Cc1ccc(N2CCC(NCCC(O)c3ccc(F)c4ccccc34)CC2)c(Cl)c1 (stereo unspecified)	class 1
OC(CCN1CCN(c2ccccc2C(F)(F)F)CC1)c1ccc(F)cc1 (stereo unspecified)	class 1
OC(CCN1CCN(C(c2ccccc2)c2ccccc2)CC1)c1ccc(F)c2ccccc12 (stereo unspecified)	class 0
COc1ccccc1N1CCN(CCC(O)c2ccc(F)c3ccccc23)CC1 (stereo unspecified)	class 0
COc1ccccc1C1=CCN(CCC(O)c2ccc(F)c3ccccc23)CC1 (stereo unspecified)	class 0
OC(CCN1CCN(c2ccccc2C(F)(F)F)CC1)c1ccc(F)c2ccccc12 (stereo in doubt; 55)	class 1
N#Cc1ccc(N2CCC(NCCC(O)c3ccc(F)c4ccccc34)CC2)c(C(F)(F)F)c1 (stereo in doubt; 72)	class 1
OC(CCN1CC=C(c2ccc(F)cc2)CC1)c1ccc2c(c1)OCO2 (stereo unspecified)	class 1
Oc1ccc(C(O)CCN2CC=C(c3ccc(F)cc3)CC2)cc1 (stereo unspecified)	class 0
OC(CCN1CCN(C(c2ccccc2)c2ccccc2)CC1)c1ccc(Br)cc1 (stereo unspecified)	class 1
Nc1ccc(N2CCC(NCCC(O)c3ccc(F)c4ccccc34)CC2)c(C(F)(F)F)c1 (stereo unspecified)	class 1
O=[N+]([O-])c1ccccc1N1CCN(CCC(O)c2ccc(F)c3ccccc23)CC1 (stereo unspecified)	class 0
OC(CCN1CCN(c2ccc(F)cc2)CC1)c1ccc(F)c2ccccc12 (stereo unspecified)	class 1
OC(CCN1CCN(C(c2ccccc2)c2ccccc2)CC1)c1ccc(Cl)cc1 (stereo unspecified)	class 1
